Source: PubChem BioAssay (NCI)

# Test system: CAKI-1 renal
# protocol: NCI tumour cell line growth inhibition, 48 h
measure: TGI

Worked examples, 5 compounds total:
Exam item: Query: TGI; subject: c1coc(C2=Nc3cccc4cccc(c34)N2)c1
Marked response: > 100 µM

Exam item: Dear colleague, I am looking for the recorded TGI of the following compound: COc1ccc(/C(=N/O)C(c2ccc(OC)cc2)C2C(=O)Oc3ccccc32)cc1 (stereo unspecified)
Marked response: > 100 µM

Exam item: // TGI lookup, key: Cc1cc2c(s1)C(N)CC2=O (stereo unspecified)
Marked response: > 100 µM

Exam item: I would be grateful if you could share the reported TGI for CCCN=Cc1c(O)c(O)c(C(C)C)c2cc(C)c(-c3c(C)cc4c(C(C)C)c(O)c(O)c(C=NCCC)c4c3O)c(O)c12 .
Marked response: > 100 µM

Exam item: Which measured TGI value corresponds to C=CCSc1ncnc2c1ncn2C1OC(CO)C(O)C1O (stereo unspecified) ?
Marked response: > 100 µM

Each of the following entries comes with a recorded value; kindly state TGI for each.
1. O=C(Nc1nc(-c2ccc(Cl)cc2)cs1)c1cc(-c2ccc(Br)cc2)nc2ccc(Cl)cc12
2. O=c1c(-c2ccccc2)c2n(c3ccccc13)CCN2
3. Clc1cccc(Cl)c1C1SCc2nc3ccccc3n21 (stereo unspecified)
4. CC(C)(C)c1ccc(C(C)(C)C)c(N2C(=O)[C@@H]3[C@@H]4C=C[C@@H](C4)[C@]3(C)C2=O)c1
5. O=C(CC1(O)C(=O)Nc2c(Cl)ccc(Cl)c21)c1ccco1 (stereo unspecified)

Marked response:
1: > 100 µM; 2: > 100 µM; 3: > 100 µM; 4: > 100 µM; 5: > 72.3 µM

Exam item: For the compound c1cc2c(s1)SSSSS2 , what TGI is on record?
Marked response: 36.6 µM

###

# Test system: TK-10 renal
# protocol: NCI tumour cell line growth inhibition, 48 h
Answer each item with its documented GI50.

Exam item: Value wanted: GI50 (TK-10 renal) of entry O=C(COc1nc2ccccc2nc1-c1ccccc1)Nc1ccc(Cl)cc1
Marked response: 15100 nM

Exam item: Form field: GI50 recorded for Cn1ncc(NC(=O)c2nc(-c3c(F)cccc3F)sc2N)c1N1CC[C@@H](N)[C@H](F)CC1 with TK-10 renal (enter value)
Marked response: 2810 nM

Exam item: Any idea what GI50 came out for COc1cc(-c2ccc(-c3ccc(C(=N)N)cc3)s2)cc(OC)c1OC on TK-10 renal?
Marked response: 2050 nM

Exam item: Short answer please: GI50, TK-10 renal, entry NCCCOc1cc2ccccc2cc1C(=O)NCCOc1nc2ccccc2cc1C(=O)Nc1ccc(Cl)cc1O
Marked response: 1300 nM

Dear colleague, could you please provide GI50 for the compounds listed below?
1. CC1=C2O[C@]3(O)C=C2C(=C(O)C1=O)[C@@H]1O[C@H](CC[C@H](C)/C=C(\C)C[C@@H](C)C[C@@H]3C)[C@H](C)[C@H](O)[C@H]1C
2. c1ccc([P+](c2ccccc2)(c2ccccc2)c2ccc3c4ccc([P+](c5ccccc5)(c5ccccc5)c5ccccc5)c5cccc(c6cccc2c63)c54)cc1

Marked response:
1. 336 nM
2. 4180 nM

The following compounds each have a reported value; give each one's GI50.
1. Cn1ccc(=O)c2c(O)c3ccccc3c(O)c21
2. COc1cc2c(cc1OCCCCCn1c(-c3ccc(OCc4ccccc4)cc3)nc3cc(N4CCOCC4)ccc31)N=C[C@@H]1CCCN1C2=O

Marked response:
> 94900 nM
3450 nM

Batch of 4 compounds: report GI50 for each.
1. COc1ccc(-c2cc(-c3ccccc3)nc(SCCCC(=O)NO)n2)cc1OC
2. CC1(C)CN(c2cc(C(F)(F)F)cc3cncn23)CCC12NC(=O)NC2=O (configuration not stated)
3. c1ccc2cc(C[n+]3ccn(CCCCCCCCCCCCn4cc[n+](Cc5ccc6ccccc6c5)c4)c3)ccc2c1
4. Clc1ccc2c(c1)C(Br)c1cc(Cl)cc(Cl)c1-2 (configuration not stated)

Marked response:
1. 409 nM
2. 37800 nM
3. 992 nM
4. > 100000 nM

###

# Test system: M14 melanoma
# protocol: NCI tumour cell line growth inhibition, 48 h; in the data active = GI50 below about 0.43 µM; inactive = the rest
Just give me one of these, please: 1 for active, -1 for inactive

Exam item: Identify the outcome logged in this assay for the molecule shown: COc1cc(-c2ccc(-c3ccc(C(=N)N)cc3)s2)cc(OC)c1OC
Marked response: -1

Exam item: # outcome recorded in this test, key = Cn1ccc(=O)c2c(O)c3ccccc3c(O)c21
Marked response: -1

Exam item: What outcome does the record of this test show for CS(=O)(=O)O[C@H]1C(=O)N(c2cc3c4ccccc4ccc3c3ccccc23)[C@@H]1c1ccccc1 ?
Marked response: -1

Exam item: Returns: the outcome recorded for O=C1C=CC(=O)c2cc3cc(CO)ccc3cc21 in this assay.
Marked response: -1

Exam item: How was C#CCn1cnc2cnc(Nc3cccc(NC(=O)CCl)c3)nc21 classified in this test?
Marked response: -1

***
Exam item: Give the logged outcome of this assay for the following molecule: NCCCCCCCCCCn1c2c(c3ccccc3c1=O)C(=O)c1ccccc1-2
Marked response: -1

Exam item: Query: recorded result category for CC(C)=[CH][Sb]([Br])([CH]=C(C)C)([CH]=C(C)C)[c]1ccccc1 in this test
Marked response: -1

Exam item: What did the test return for Cn1ncc(NC(=O)c2nc(-c3c(F)cccc3F)sc2N)c1N1CC[C@@H](N)[C@H](F)CC1 ?
Marked response: -1

Exam item: Hi team, can someone confirm the assay call for O=C(c1ccc(Cl)cc1)c1no[n+]([O-])c1C(=O)c1ccc(Cl)cc1 ?
Marked response: -1

Exam item: Check the results log: what was the call for CCC(CC)c1nc(Nc2cccc(OC)c2)c2ccccc2n1 ?
Marked response: -1

Exam item: For NCCCOc1cc2ccccc2cc1C(=O)NCCOc1nc2ccccc2cc1C(=O)Nc1ccc(Cl)cc1O , which call appears in the assay record?
Marked response: -1

Exam item: How was Nc1nonc1C(=Nc1ccc(F)c(Cl)c1)NO classified in this test?
Marked response: -1

Exam item: Name the outcome recorded for COc1ccc(/C=C/C(=O)c2cc3c(N)c(C(=O)Nc4cccc(Cl)c4C)sc3nc2C)cc1 in the assay.
Marked response: 1

Exam item: Test call for this molecule, please: O=C([O-])c1cc(I)cc(I)c1[OH2+].O=C([O-])c1cc(I)cc(I)c1[OH2+].[Mn+2]
Marked response: -1

Exam item: Assay result, entry O=C(Nc1nc(-c2ccc(Cl)cc2)cs1)c1cc(-c2ccc(Br)cc2)nc2ccc(Cl)cc12 — outcome?
Marked response: -1

Exam item: Outcome logged for COc1cc2c(cc1I)-c1c(cc(OC)c(OC)c1OC)CC[C@@H]2NC(C)=O in this assay:
Marked response: 1

Exam item: Status in this test for c1cc2c(s1)SSSSS2 ?
Marked response: -1

###

# Test system: DU-145 prostate
# protocol: NCI tumour cell line growth inhibition, 48 h
measure: GI50

Exam item: So what's the measured GI50 for this one? c1ccc2cc(C[n+]3ccn(CCCCCCCCCCCCn4cc[n+](Cc5ccc6ccccc6c5)c4)c3)ccc2c1
Marked response: 1.03 µM

Exam item: Give its GI50 value. Item: CNC(=O)NCC1OC(n2cnc3c(NC(=O)Nc4ccccc4)ncnc32)C(O[Si](C)(C)C(C)(C)C)C1CC(=O)N(C)OC (stereo unspecified)
Marked response: 14.7 µM

Provide GI50 for all items below, preserving their order.
1. CC(=O)NS(=O)(=O)c1ccc(-n2nc(-c3ccc(Cl)cc3)cc2-c2cc(O)ccc2O)cc1
2. O=C(Nc1ccc(OCc2nnc(-c3ccc(Cl)cc3)o2)c(F)c1)c1ccc(Cl)c(C(F)(F)F)c1
3. CC1(C)C(N(O)C(=O)Nc2ccc(Cl)cc2)N(c2ccc(Cl)cc2)C(=O)N1CC(=O)N/N=C/C=C/c1ccc([N+](=O)[O-])o1 (stereo unspecified)
4. CS(=O)(=O)O[C@H]1C(=O)N(c2cc3c4ccccc4ccc3c3ccccc23)[C@@H]1c1ccccc1

Marked response:
21.5 µM
> 50 µM
1.85 µM
0.819 µM

###

# Tested on: HOP-62 NSCLC
# protocol: NCI tumour cell line growth inhibition, 48 h
measure: GI50

Exam item: Which GI50 reading was recorded for the compound COc1ccc(-c2cc(-c3ccccc3)nc(SCCCC(=O)NO)n2)cc1OC ?
Marked response: 0.626 µM

Provide GI50 for all items below, preserving their order.
1. NC1CCCCC1N.Nc1c(N=Nc2ccc(-c3ccc(N=Nc4cc(S(=O)(=O)[O-])c5ccccc5c4N)cc3)cc2)cc(S(=O)(=O)[O-])c2ccccc12.[OH3+].[OH3+].[Pt+4]
2. O=C(Nc1nc(-c2ccc(Cl)cc2)cs1)c1cc(-c2ccc(Br)cc2)nc2ccc(Cl)cc12

Marked response:
> 100 µM
4.66 µM

###

# Test system: SNB-19 CNS
# protocol: NCI tumour cell line growth inhibition, 48 h; in the data active means GI50 below about 0.43 µM; inactive means the rest
Form entry, call: pick from active, inactive

# example entries with known answers
Exam item: Call for entry COc1ccc(/C=C/C(=O)c2cc3c(N)c(C(=O)Nc4cccc(Cl)c4C)sc3nc2C)cc1 :
Marked response: active

Exam item: For O=C(Nc1nc(-c2ccc(Cl)cc2)cs1)c1cc(-c2ccc(Br)cc2)nc2ccc(Cl)cc12 , which call appears in the assay record?
Marked response: inactive

Exam item: Kindly provide the recorded test outcome for the following compound: CCO/C=N/C1=C(C#N)C(c2ccc(OC)cc2)c2sc3c(F)cccc3c2O1 (stereo not drawn)
Marked response: inactive

New cases:
Exam item: GET /call?item= O=C(c1ccc(Cl)cc1)c1no[n+]([O-])c1C(=O)c1ccc(Cl)cc1 returns the recorded outcome of this test.
Marked response: inactive

Exam item: Give the logged outcome of this assay for the following compound: CC(C)=[CH][Sb]([Br])([CH]=C(C)C)([CH]=C(C)C)[c]1ccccc1
Marked response: inactive

Exam item: Recorded test call requested for CC(=O)/C=C/c1ccc(OCc2ccc(C(C)(C)C)cc2)cc1
Marked response: inactive

Exam item: Check the results log: what was the call for C[C@@]1(C(=O)Nc2ccc(F)nc2)CCCN1c1nc(Nc2cc(C3CC3)[nH]n2)c2cccn2n1 ?
Marked response: inactive

Exam item: How was NCCCCCCCCCCn1c2c(c3ccccc3c1=O)C(=O)c1ccccc1-2 classified in this test?
Marked response: inactive

Exam item: Any idea what this test logged for COc1cccc(/C=N/[N-]C(=O)c2ccncc2)c1[O-].[Ni+2].[OH3+] ?
Marked response: inactive
